The origin of these recorded values is the supplement of paper PMC9938120.

# maps each entry to its drug sensitivity score
tested on: FMOC03 (patient-derived mucinous ovarian cancer cells); assay: drug sensitivity score (DSS3, normalised partial AUC of % inhibition dose-response) (DSS (score)); higher = more sensitive (stronger inhibition of viability); extreme values may be limits of the assay; settings: 72 h; library: FO5A; assay format: 2D, 384-well, CellTiter-Glo
observation type: drug sensitivity score

1. CC(C)C[C@H](NC(=O)[C@H](CCc1ccccc1)NC(=O)CN1CCOCC1)C(=O)N[C@@H](Cc1ccccc1)C(=O)N[C@@H](CC(C)C)C(=O)[C@@]1(C)CO1 [Carfilzomib]: 18
2. C[C@@H]1CN(Cc2ccc(F)cc2)[C@@H](C)CN1C(=O)c1cc2c(C(=O)C(=O)N(C)C)cn(C)c2cc1Cl [Talmapimod]: 0
3. CNC(=O)c1ccc2cc([C@@]3(O)CCn4cncc43)ccc2c1 [Orteronel]: 0
4. O=C(CCCCCCNC(=O)c1cnc(N(c2ccccc2)c2ccccc2)nc1)NO [Rocilinostat]: 5.1
5. Cc1ccc(-n2nc(C(C)(C)C)cc2NC(=O)Nc2ccc(OCCN3CCOCC3)c3ccccc23)cc1 [Doramapimod]: 0
6. CNC(=O)c1ccc(N2C(=S)N(c3cnc(C#N)c(C(F)(F)F)c3)C(=O)C23CCC3)cc1F [Apalutamide]: 0
7. CN1C(=O)N[C@H](Cc2c[nH]c3c(Cl)cccc23)C1=O [Necrostatin 2]: 0

* * *

system: FMOC11 (patient-derived high-grade serous ovarian cancer cells); assay: drug sensitivity score (DSS3, normalised partial AUC of % inhibition dose-response) (DSS (score)); higher = more sensitive (stronger inhibition of viability); extreme values may be limits of the assay; conditions: 72 h; library: FO5A; assay format: 2D, 384-well, CellTiter-Glo
# maps each entry to its drug sensitivity score
observation type: drug sensitivity score

1) N#CC1(c2ccc(NC(=O)c3cccnc3NCc3ccncc3)cc2)CCCC1: 0
2) Cc1ccc(-n2nc(C(C)(C)C)cc2NC(=O)Nc2ccc(OCCN3CCOCC3)c3ccccc23)cc1: 2.4
3) COc1cc2c(Oc3ccc4[nH]c(C)cc4c3F)ncnc2cc1OCCCN1CCCC1: 0.2
4) O=C(NCc1ccncc1)C12CC3CC(C1)CC(c1ccc(Cl)cc1)(C3)C2: 5.8
5) N#Cc1ccc2[nH]c(O)c(-c3ccc(CN4CCOCC4)cn3)c2c1: 0

* * *

# maps each entry to its drug sensitivity score
tested on: FMOC25_1 (patient-derived low-grade serous ovarian cancer cells); assay: drug sensitivity score (DSS3, normalised partial AUC of % inhibition dose-response) (DSS (score)); higher = more sensitive (stronger inhibition of viability); extreme values may be limits of the assay; conditions: 72 h; library: FO4B; assay format: 2D, 384-well, CellTiter-Glo
observation type: drug sensitivity score

1. CN(Cc1cnc2nc(N)nc(N)c2n1)c1ccc(C(=O)N[C@@H](CCC(=O)O)C(=O)O)cc1 [Methotrexate]: 0
2. O=c1[nH]cc(F)c(=O)[nH]1 [Fluorouracil]: 3.1
3. CC[C@]1(O)C[C@H]2CN(CCc3c([nH]c4ccccc34)[C@@](C(=O)OC)(c3cc4c(cc3OC)N(C=O)[C@H]3[C@@](O)(C(=O)OC)[C@H](OC(C)=O)[C@]5(CC)C=CCN6CC[C@]43[C@@H]65)C2)C1 [Vincristine]: 9.4
4. NC(=O)Nc1sc(-c2ccc(F)cc2)cc1C(N)=O [TPCA-1]: 2.9
5. CCCC(CCC)C(=O)O [Valproic acid]: 0
6. CCN(CC)CCCC(C)Nc1ccnc2cc(Cl)ccc12 (stereo not given) [Chloroquine]: 7.1
7. Cc1[nH]c2ccccc2c1CCNCc1ccc(/C=C/C(=O)NO)cc1 [Panobinostat]: 11.2
8. CC(C)(C)c1cc(NC(=O)Nc2ccc(-c3cn4c(n3)sc3cc(OCCN5CCOCC5)ccc34)cc2)no1 [Quizartinib]: 0.7
9. Cn1c(=O)n(-c2ccc(C(C)(C)C#N)cc2)c2c3cc(-c4cnc5ccccc5c4)ccc3ncc21 [Dactolisib]: 22.7
10. COc1cccc2c1C(=O)c1c(O)c3c(c(O)c1C2=O)C[C@@](O)(C(C)=O)C[C@@H]3O[C@H]1C[C@H](N)[C@H](O)[C@H](C)O1 [Daunorubicin]: 10.1
11. COc1cc2nccc(Oc3ccc(NC(=O)Nc4cc(C)on4)c(Cl)c3)c2cc1OC [Tivozanib]: 1.9
12. Nc1nc(N)c2nc(-c3cccc(O)c3)c(-c3cccc(O)c3)nc2n1 [TG100-115]: 0
13. C=CC(=O)Nc1cc2c(Nc3ccc(F)c(Cl)c3)ncnc2cc1OCCCN1CCOCC1 [Canertinib]: 10
14. CO[C@H]1C[C@@H]2CC[C@@H](C)[C@@](O)(O2)C(=O)C(=O)N2CCCC[C@H]2C(=O)O[C@H]([C@H](C)C[C@@H]2CC[C@@H](OC(=O)C(C)(CO)CO)[C@H](OC)C2)CC(=O)[C@H](C)/C=C(\C)[C@@H](O)[C@@H](OC)C(=O)[C@H](C)C[C@H](C)/C=C/C=C/C=C/1C [Temsirolimus]: 13.6
15. CCc1cnn2c(NCc3ccc[n+]([O-])c3)cc(N3CCCC[C@H]3CCO)nc12 [Dinaciclib]: 17.6
